System: rice
assayRemarks: Test C flooded paddy test
Assay type: in vivo, Oryza sativa
studyConditions: Flood, 62 g ai/ha; scale 0 to 100 (0 no effect, 100 complete control)
resultType: Plant response rating, Rice
Just the number, please, no unit attached.

See these solved cases before continuing.
Cn1nc(OC(F)F)c(CS(=O)(=O)c2cccc[n+]2[O-])c1C(F)(F)F [Compound 80]
0
CCc1cc[n+]([O-])c(S(=O)(=O)Cc2c(C(F)(F)F)nn(C)c2OCC(F)(F)F)c1 [Compound 60]
0
CC(Oc1c(C[S+]([O-])c2ccc(Cl)c[n+]2[O-])c(C(F)(F)F)nn1C)C(F)(F)F (centres unmarked) [Compound 87]
30
Cn1nc(C(F)(F)F)c(CS(=O)(=O)c2ccc(Cl)c[n+]2[O-])c1OCC(F)(F)F [Compound 73]
0
Cn1nc(OC(F)F)c(C[S+]([O-])c2cccc[n+]2[O-])c1C(F)(F)F (centres unmarked) [Compound 74]
10
Cc1cc[n+]([O-])c([S+]([O-])Cc2c(C(F)(F)F)nn(C)c2OC(C)C(F)(F)F)c1 (centres unmarked) [Compound 88]
0

# Plant response rating, Rice lookup, item CCc1cc[n+]([O-])c([S+]([O-])Cc2c(C(F)(F)F)nn(C)c2OC(F)F)c1 (centres unmarked) [Compound 101] 0

Tell me the measured Plant response rating, Rice of CCn1nc(C(F)(F)F)c(C[S+]([O-])c2cccc[n+]2[O-])c1OCC(F)(F)F (racemic) [Compound 65] , please. 0

Can you look up the measured Plant response rating, Rice of CCn1nc(C(F)(F)F)c(C[S+]([O-])c2cc(C)cc[n+]2[O-])c1OCC(F)(F)F (racemic) [Compound 66] for me? 20

May I ask what Plant response rating, Rice has been recorded for Cn1nc(C(F)(F)C(F)(F)F)c(C[S+]([O-])c2cccc[n+]2[O-])c1OCC(F)(F)F (centres unmarked) [Compound 79] ? 70

Endpoint output: Plant response rating, Rice of C#CCOc1c(C[S+]([O-])c2cccc[n+]2[O-])c(C(F)(F)F)nn1C (centres unmarked) [Compound 76] . Value? 0

Report Plant response rating, Rice for Cn1nc(C(F)(F)F)c(CS(=O)(=O)c2cccc[n+]2[O-])c1OCC(F)F [Compound 81] please. 0

# Plant response rating, Rice lookup, item Cn1nc(C(F)(F)F)c(C[S+]([O-])c2ccc(Cl)c[n+]2[O-])c1OCC(F)F (centres unmarked) [Compound 85] 0

Find the recorded Plant response rating, Rice belonging to Cn1nc(C(F)(F)F)c(C[S+]([O-])c2cc(Cl)cc[n+]2[O-])c1OCC(F)(F)F (centres unmarked) [Compound 68] and report it. 0

---

Tested on: wheat
assayRemarks: Test A pre-/postemergence greenhouse test
Format: in vivo, Triticum aestivum
studyConditions: Postemergence, 500 g ai/ha; 0 to 100 scale, 0 is no effect, 100 is complete control
Measured Wheat plant response rating values are reported for all entries that follow.
Please state the value as a number alone, without comment.

Some molecules with recorded Wheat plant response rating:
CC(c1c(C(F)(F)F)nn(C)c1OCC(F)(F)F)S(=O)(=O)c1cccc[n+]1[O-] (racemic) [Compound 33]
70
Cc1cc[n+]([O-])c([S+]([O-])Cc2c(C(F)(F)F)nn(C)c2OC(C)C(F)(F)F)c1 (centres unmarked) [Compound 88]
70
[O-][n+]1ccccc1[S+]([O-])Cc1c(C(F)(F)F)nn(CC(F)(F)F)c1Cl (centres unmarked) [Compound 43]
60
Cn1nc(C(F)(F)F)c(C[S+]([O-])c2cc(C3CC3)cc[n+]2[O-])c1OCC(F)(F)F (centres unmarked) [Compound 121]
50
Cn1nc(C(F)(F)F)c(C[S+]([O-])c2cc(C(C)(C)C)cc[n+]2[O-])c1OC(F)F (racemic) [Compound 24]
30
CC(c1c(C(F)(F)F)nn(C)c1Cl)S(=O)(=O)c1cccc[n+]1[O-] (centres unmarked) [Compound 10]
70
Cn1nc(C(F)(F)F)c(C[S+]([O-])c2cc(C3CC3)cc[n+]2[O-])c1OC(F)F (centres unmarked) [Compound 120]
50
Cn1nc(OC(F)F)c(C[S+]([O-])c2cccc[n+]2[O-])c1C(F)(F)F (centres unmarked) [Compound 74]
60
O=S(=O)(Cc1c(C(F)(F)F)nn(CC(F)(F)F)c1Cl)c1ccc(Cl)c[n+]1[O-] [Compound 50]
0
CCn1nc(C(F)(F)F)c(C[S+]([O-])c2cccc[n+]2[O-])c1OCC(F)(F)F (racemic) [Compound 65]
70

Identify the measured Wheat plant response rating of Cn1nc(C(F)(F)F)c(CS(=O)(=O)c2cccc[n+]2[O-])c1OCC(F)(F)C(F)(F)F [Compound 83] for wheat. 10

Requested read-out Wheat plant response rating, target or system wheat, entry Cn1nc(C(F)(F)F)c(C[S+]([O-])c2cc(F)cc[n+]2[O-])c1Cl (racemic) [Compound 42] 50

Provide the documented Wheat plant response rating with wheat as the system for Cc1cc[n+]([O-])c([S+]([O-])Cc2c(C(F)(F)F)nn(C)c2OC(F)F)c1 (centres unmarked) [Compound 1] 70

Field: Wheat plant response rating (wheat). Entry: Cn1nc(C(F)(F)F)c(C[S+]([O-])c2ccc(Cl)c[n+]2[O-])c1OCC(F)F (centres unmarked) [Compound 85] 70
